I'd be grateful if you could share measured Kd for these entries.
# assayed target: T1, recombinant human BCMA, in house material (human, UniProt Q02223 4-53, limits assumed)
# T1 construct: also called Human in house BCMA; In house human BCMA
# T1 sequence (Q02223 4-53 limits assumed): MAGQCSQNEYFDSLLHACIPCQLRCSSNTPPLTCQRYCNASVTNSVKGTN
# experiment: ProteOn SPR run 1, antibody captured on Protein A, 25C
Numbers only, in nM.

Known results for binders:
S307118G03 humanised H2L1 (antibody, human IgG1, kappa, V domains shown, Humanised, human IgG1 kappa) VH: QVQLVQSGAEVKKPGSSVKVSCKASGYTFTDYYMKWVRQAPGQGLEWMGEIYPNNGGITYNQKFKGRVTITADKSTSTAYMELSSLRSEDTAVYYCANGYEFVYWGQGTLVTVSS VL: DIQMTQSPSSLSASVGDRVTITCSASQGISNYLNWYQQKPGKAPKLLIYYTSSLHSGVPSRFSGSGSGTDYTLTISSLQPEDFATYYCQQYSKLPWTFGQGTKLEIKR | 6.37
CA8 humanised J1M0 (antibody, human IgG1, kappa, V domains shown, Humanised CA8, heavy chain J1 with light chain M0, human IgG1 kappa; also called CA8 J1M0) VH: QVQLVQSGAEVKKPGSSVKVSCKASGYTFTNYWMHWVRQAPGQGLEWMGATYRGHSDTYYNQKFKGRVTITADKSTSTAYMELSSLRSEDTAVYYCARGAIYNGYDVLDNWGQGTLVTVSS VL: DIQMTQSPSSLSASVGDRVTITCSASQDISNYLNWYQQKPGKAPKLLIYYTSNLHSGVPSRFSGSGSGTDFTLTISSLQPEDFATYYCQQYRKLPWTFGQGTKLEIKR | 2.82

Give me Kd for each of these binders, listed below.
1. CA8 humanised J4M1 (antibody, human IgG1, kappa, V domains shown, Humanised CA8, heavy chain J4 with light chain M1, human IgG1 kappa; also called CA8 J4M1) VH: QVQLVQSGAEVKKPGSSVKVSCKGSGYTFTNYWMHWVRQAPGQGLEWIGATYRGHSDTYYNQKFKGRATLTADTSTSTAYMELSSLRSEDTAVYYCTRGAIYNGYDVLDNWGQGTLVTVSS VL: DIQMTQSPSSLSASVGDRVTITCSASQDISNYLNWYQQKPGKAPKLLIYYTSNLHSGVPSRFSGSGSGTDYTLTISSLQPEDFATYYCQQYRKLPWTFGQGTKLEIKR
2. CA8 humanised J4M0 (antibody, human IgG1, kappa, V domains shown, Humanised CA8, heavy chain J4 with light chain M0, human IgG1 kappa; also called CA8 J4M0) VH: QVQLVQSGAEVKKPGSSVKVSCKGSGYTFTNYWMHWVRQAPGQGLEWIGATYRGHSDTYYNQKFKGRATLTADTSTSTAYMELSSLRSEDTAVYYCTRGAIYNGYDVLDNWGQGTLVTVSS VL: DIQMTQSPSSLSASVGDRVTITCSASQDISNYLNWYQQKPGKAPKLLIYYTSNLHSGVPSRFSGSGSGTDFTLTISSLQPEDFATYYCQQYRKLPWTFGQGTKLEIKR
3. CA8 humanised J3M1 (antibody, human IgG1, kappa, V domains shown, Humanised CA8, heavy chain J3 with light chain M1, human IgG1 kappa; also called CA8 J3M1) VH: QVQLVQSGAEVKKPGSSVKVSCKGSGYTFTNYWMHWVRQAPGQGLEWMGATYRGHSDTYYNQKFKGRVTITADTSTSTAYMELSSLRSEDTAVYYCTRGAIYNGYDVLDNWGQGTLVTVSS VL: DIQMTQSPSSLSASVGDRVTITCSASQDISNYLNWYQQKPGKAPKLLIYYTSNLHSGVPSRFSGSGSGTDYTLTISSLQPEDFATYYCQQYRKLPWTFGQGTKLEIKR

Reply |
1. 0.278
2. 0.906
3. 0.438
